Reference source: the DeepSol protein solubility set

assay: soluble on expression in E. coli; label from the status in PepcDB or PDB records

Sequence Content: MGSDKIHHHHHHMKKYYIYILTAVLPILWGACNNGDDIDTKHSIFSTEPMEHNGFDEWLLANYTYPYNVDFKYRMQDIESDHKYNLVPADYDKSVALAKIIKHVWMEAYTELAGPAFLRSYVPKTFHLIGSPAYDSSGTKVLGTAEGGKKITLYEVNSLDFENVDIEVLNEYYFKTMHHEFAHILHQKRNYDPSFDRITEGKYVGSDWYFYVAENGNSYLREDADAWPEGFVTAYAMSEAREDFVENIAMYVTHDQAYWDNMLKVAGTAGAAIINQKFTIVYNYMLETWGINLDDLREIVLRRQQEIPELDLSTIE
soluble on expression in E. coli: not soluble
--
Sequence Content: MKLSTAFLTFSAVFLYGSAQQLLYLNSFKGMRVNNDMYEWCNIYISAQSDDTSFLASVYIVTAKNSKSLLNIMQDNLQNTGEIQGYPVDPPAYLTTSLSDNEMKQLNGVIYLSSAGQRVDSTFHVYDIYQARKMNIIANGYSTFLFLNSNMQTKPSRSSIISDWNQIKGSSGLLYAGFPLDSKVNVYPIFSNPITIQNSEVLFPNVETFSLSLAAFYITTNNGFSFKIKPGYYNINGTNTTSVYSTTGFYMKPAGEDDSTIVVNIENDIRCSGTSGASVVGHFPTGGNVTVGFYNGMAKYEQSAPPEDYPSYNPWTIPFIGQHFKVSSTNGTAGQYYVQYFVNQRPPRQTTPPETTTKSAGAVKLFTSVVTLLMYWL
soluble on expression in E. coli: not soluble
--
Sequence Content: MGSDKIHHHHHHMNKAERQNLIITAIQQNKKMTALELAKYCNVSKRTILRDIDDLENQGVKIYAHYGKNGGYQIQQAQSKIALNLSETQLSALFLVLNESQSYSTLPYKSEINAIIKQCLSLPQTRLRKLLKRMDFYIKFDDTQHMTLPMLFSDILIYCTERNVMLVDHRVDDNIKAENVIFIGLLCKHGHWHAVIYDIAQDKTAELEIENIIDISYSFGKTIQTRDISIDNYHQFLNPIDS
soluble on expression in E. coli: not soluble
